Molecular target: LsrK (Salmonella typhimurium, UniProt Q8ZKQ6)
Sequence (Q8ZKQ6 whole entry): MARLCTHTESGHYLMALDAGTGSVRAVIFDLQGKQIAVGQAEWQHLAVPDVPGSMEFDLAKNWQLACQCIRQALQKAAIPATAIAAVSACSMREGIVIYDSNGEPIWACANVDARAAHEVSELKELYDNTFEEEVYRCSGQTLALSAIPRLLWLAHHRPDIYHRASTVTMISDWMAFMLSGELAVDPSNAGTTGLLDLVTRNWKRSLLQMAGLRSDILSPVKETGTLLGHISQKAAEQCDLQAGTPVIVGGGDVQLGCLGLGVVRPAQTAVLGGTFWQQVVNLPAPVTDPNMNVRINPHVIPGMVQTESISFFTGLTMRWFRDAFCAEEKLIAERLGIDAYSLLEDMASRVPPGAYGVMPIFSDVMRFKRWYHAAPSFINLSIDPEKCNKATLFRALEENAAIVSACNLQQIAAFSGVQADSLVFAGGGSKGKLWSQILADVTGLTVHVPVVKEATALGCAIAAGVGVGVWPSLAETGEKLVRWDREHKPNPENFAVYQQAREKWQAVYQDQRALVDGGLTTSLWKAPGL
Assay: biochemical
Assay type: biochemical, S. typhimurium
Where a name gives a salt, the structure may show the parent alone.
measurement-kind: inhibition at 50 µM (%)
Field: numeric (%). Do not append units.

# count of solved cases: 3
INSERT INTO results (molecule, measurement_kind, result_number) VALUES
  ('Cc1nccc2c1[nH]c1cc(O)ccc12 [HARMOL HYDROCHLORIDE]', 'inhibition at 50 µM', 3),
  ('CCN(CC)CCCC(C)Nc1c2ccc(Cl)cc2nc2ccc(OC)cc12 (stereo not shown) [QUINACRINE HYDROCHLORIDE]', 'inhibition at 50 µM', 3),
  ('Cc1nc2sccn2c(=O)c1CCN1CCC(=C(c2ccc(F)cc2)c2ccc(F)cc2)CC1 [RITANSERIN]', 'inhibition at 50 µM', 3);

Could you now consider this next molecule?
For CO/N=C1\CN(c2nc3c(cc2F)c(=O)c(C(=O)O)cn3C2CC2)CC1CN (stereo not shown) [GEMIFLOXACIN MESYLATE] , what is its reported inhibition at 50 µM? 0
